# credit: ChEMBL document CHEMBL4602648

Overview of reported log10(MIC) across a group of molecules:
target.system: Enoyl-[acyl-carrier-protein] reductase [NADH] (Mycobacterium tuberculosis) (UniProt P9WGR1)
experiment.description: Inhibition of Mycobacterium tuberculosis H37Rv ATCC 27294 InhA assessed as bacterial growth inhibition after 5 days by microplate alamar blue assay
assay.metric: log10(MIC) (log10 of the value in µM)

{"columns": ["smiles.str", "assay.metric", "meas.value"],
 "data": [
  ["O=C(NCc1cn(Cc2ccc(C(F)(F)F)cc2)nn1)c1cnccn1", "log10(MIC)", 0.63],
  ["O=C(NCc1cn(Cc2ccc(C(F)(F)F)cc2)nn1)c1cccnc1", "log10(MIC)", 0.63],
  ["O=[N+]([O-])c1ccc(Cn2cc(CSc3nnc(-c4cccnc4)o3)nn2)cc1", "log10(MIC)", 1.80],
  ["Fc1ccc(Cn2cc(CSc3nnc(-c4cnccn4)o3)nn2)cc1", "log10(MIC)", 1.53],
  ["N#Cc1ccc(Cn2cc(CNC(=O)c3cccnc3)nn2)cc1", "log10(MIC)", 0.69],
  ["N#Cc1ccc(Cn2cc(COC(=O)c3cnccn3)nn2)cc1", "log10(MIC)", 0.99],
  ["O=C(OCc1cn(Cc2ccc([N+](=O)[O-])cc2)nn1)c1cnccn1", "log10(MIC)", 1.26],
  ["CN[C@@H]1[C@H](O[C@H]2[C@H](O[C@H]3[C@H](O)[C@@H](O)[C@H](N=C(N)N)[C@@H](O)[C@@H]3N=C(N)N)O[C@@H](C)[C@]2(O)C=O)O[C@@H](CO)[C@H](O)[C@H]1O", "log10(MIC)", 1.07],
  ["O=C(OCc1cn(Cc2ccc(F)cc2)nn1)c1ccccc1", "log10(MIC)", 1.90]
]}

----------
Test system: Pseudomonas aeruginosa
experiment.description: Antibacterial activity against Pseudomonas aeruginosa by dilution assay
Format: functional
Overview of reported MIC across a group of compounds:
assay.metric: MIC (µg/mL)

{"columns": ["smiles.str", "unit.symbol", "meas.value"],
 "data": [
  ["Cc1ccc(Cn2cc(CSc3nnc(-c4cnccn4)o3)nn2)cc1", "µg/mL", 25],
  ["FC(F)(F)c1ccc(Cn2cc(CSc3nnc(-c4cnccn4)o3)nn2)cc1", "µg/mL", 25],
  ["O=C(OCc1cn(Cc2ccc([N+](=O)[O-])cc2)nn1)c1cccnc1", "µg/mL", 25],
  ["O=C(NCc1cn(Cc2ccc([N+](=O)[O-])cc2)nn1)c1cccnc1", "µg/mL", 6.25],
  ["O=C(OCc1cn(Cc2ccc(F)cc2)nn1)c1cccnc1", "µg/mL", 50],
  ["O=C(NCc1cn(Cc2ccc(C(F)(F)F)cc2)nn1)c1cccnc1", "µg/mL", 12.5],
  ["O=C(OCc1cn(Cc2ccc(C(F)(F)F)cc2)nn1)c1cnccn1", "µg/mL", 25],
  ["N#Cc1ccc(Cn2cc(COC(=O)c3ccccc3)nn2)cc1", "µg/mL", 50],
  ["O=C(OCc1cn(Cc2ccc(F)cc2)nn1)c1ccccc1", "µg/mL", 25],
  ["N#Cc1ccc(Cn2cc(CNC(=O)c3ccccc3)nn2)cc1", "µg/mL", 25],
  ["O=C(NCc1cn(Cc2ccc([N+](=O)[O-])cc2)nn1)c1cnccn1", "µg/mL", 6.25]
]}

----------
Test system: Vero
experiment.description: Cytotoxicity against African green monkey Vero cells assessed as reduction in cell viability incubated for 48 hrs by MTT assay
Type: cell-based
test.conditions: Chlorocebus sabaeus
Flag rule - IC50 less than 400 µg/mL flags met; the remaining entries get not met.

{"columns": ["smiles.str", "label.value"],
 "data": [
  ["O=C(NCc1cn(Cc2ccc([N+](=O)[O-])cc2)nn1)c1cccnc1", "not met"],
  ["O=C(NCc1cn(Cc2ccc(C(F)(F)F)cc2)nn1)c1cccnc1", "met"],
  ["O=C(NCc1cn(Cc2ccc(C(F)(F)F)cc2)nn1)c1cnccn1", "met"],
  ["N#Cc1ccc(Cn2cc(CNC(=O)c3cnccn3)nn2)cc1", "not met"],
  ["O=C(NCc1cn(Cc2ccc(F)cc2)nn1)c1cnccn1", "not met"]
]}

----------
target.system: Enoyl-[acyl-carrier-protein] reductase [NADH] (Mycobacterium tuberculosis) (UniProt P9WGR1)
Sequence (whole entry): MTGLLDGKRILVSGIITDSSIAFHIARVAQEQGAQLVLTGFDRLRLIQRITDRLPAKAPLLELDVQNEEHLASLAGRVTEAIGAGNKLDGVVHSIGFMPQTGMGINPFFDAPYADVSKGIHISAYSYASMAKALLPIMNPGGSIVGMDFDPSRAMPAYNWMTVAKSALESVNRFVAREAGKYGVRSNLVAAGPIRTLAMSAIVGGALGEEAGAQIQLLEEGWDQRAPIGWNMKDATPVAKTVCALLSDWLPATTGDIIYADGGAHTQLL
experiment.description: Inhibition of Mycobacterium tuberculosis H37Rv ATCC 27294 InhA assessed as bacterial growth inhibition after 5 days by microplate alamar blue assay
Overview of reported MIC across a group of compounds:

{"columns": ["smiles.str", "unit.symbol", "qualifier.symbol", "MIC"],
 "data": [
  ["O=C(NCc1cn(Cc2ccc(F)cc2)nn1)c1ccccc1", "µM", ">", 100],
  ["Cc1ccc(Cn2cc(CSc3nnc(-c4cnccn4)o3)nn2)cc1", "µM", "=", 8.53],
  ["N#Cc1ccc(Cn2cc(COC(=O)c3ccccc3)nn2)cc1", "µM", "=", 39.3],
  ["FC(F)(F)c1ccc(Cn2cc(CSc3nnc(-c4cccnc4)o3)nn2)cc1", "µM", ">", 100],
  ["NC(=O)c1cnccn1", "µM", "=", 25.3],
  ["O=C(OCc1cn(Cc2ccc(F)cc2)nn1)c1cccnc1", "µM", ">", 100],
  ["O=C(NCc1cn(Cc2ccc([N+](=O)[O-])cc2)nn1)c1cccnc1", "µM", "=", 4.61],
  ["O=C(NCc1cn(Cc2ccccc2F)nn1)c1cccnc1", "µM", "=", 10],
  ["Fc1ccccc1Cn1cc(CSc2nnc(-c3cnccn3)o2)nn1", "µM", ">", 100],
  ["N#Cc1ccc(Cn2cc(CNC(=O)c3ccccc3)nn2)cc1", "µM", "=", 39.4],
  ["O=C(OCc1cn(Cc2ccc(F)cc2)nn1)c1cnccn1", "µM", "=", 9.95],
  ["Fc1ccccc1Cn1cc(CSc2nnc(-c3cccnc3)o2)nn1", "µM", ">", 100],
  ["O=C(OCc1cn(Cc2ccc(C(F)(F)F)cc2)nn1)c1ccccc1", "µM", ">", 100],
  ["O=[N+]([O-])c1ccc(Cn2cc(CSc3nnc(-c4cnccn4)o3)nn2)cc1", "µM", "=", 15.8],
  ["O=C(NCc1cn(Cc2ccc(C(F)(F)F)cc2)nn1)c1ccccc1", "µM", ">", 100],
  ["O=C(NCc1cn(Cc2ccc([N+](=O)[O-])cc2)nn1)c1ccccc1", "µM", ">", 100],
  ["O=C(NCc1cn(Cc2ccc([N+](=O)[O-])cc2)nn1)c1cnccn1", "µM", "=", 4.59],
  ["O=C(OCc1cn(Cc2ccccc2F)nn1)c1ccccc1", "µM", "=", 80.3],
  ["N#Cc1ccc(Cn2cc(CSc3nnc(-c4cnccn4)o3)nn2)cc1", "µM", "=", 16.6],
  ["O=C(NCc1cn(Cc2ccc(F)cc2)nn1)c1cccnc1", "µM", "=", 80.3],
  ["O=C(OCc1cn(Cc2ccc([N+](=O)[O-])cc2)nn1)c1cccnc1", "µM", "=", 36.8],
  ["O=C(OCc1cn(Cc2ccccc2F)nn1)c1cccnc1", "µM", "=", 80],
  ["O=C(NCc1cn(Cc2ccccc2F)nn1)c1cnccn1", "µM", "=", 9.99],
  ["O=C(OCc1cn(Cc2ccc(C(F)(F)F)cc2)nn1)c1cnccn1", "µM", "=", 8.59]
]}

----------
Test system: Pseudomonas aeruginosa
experiment.description: Antibacterial activity against Pseudomonas aeruginosa by dilution assay
Type: functional
Calls of active or inactive are those of the source. The rule behind the calls is not given here.

{"columns": ["compound", "MIC"],
 "data": [
  ["N#Cc1ccc(Cn2cc(CSc3nnc(-c4cccnc4)o3)nn2)cc1", "50 µg/mL"],
  ["Cc1ccc(Cn2cc(CSc3nnc(-c4cccnc4)o3)nn2)cc1", "225 µg/mL"],
  ["Fc1ccc(Cn2cc(CSc3nnc(-c4cnccn4)o3)nn2)cc1", "50 µg/mL"],
  ["O=C(NCc1cn(Cc2ccccc2F)nn1)c1cccnc1", "25 µg/mL"],
  ["O=C(OCc1cn(Cc2ccccc2F)nn1)c1cccnc1", "50 µg/mL"],
  ["O=[N+]([O-])c1ccc(Cn2cc(CSc3nnc(-c4cccnc4)o3)nn2)cc1", "25 µg/mL"],
  ["O=C(OCc1cn(Cc2ccccc2F)nn1)c1cnccn1", "50 µg/mL"],
  ["O=C(NCc1cn(Cc2ccccc2F)nn1)c1cnccn1", "12.5 µg/mL"],
  ["O=C(OCc1cn(Cc2ccccc2F)nn1)c1ccccc1", "50 µg/mL"],
  ["O=C(NCc1cn(Cc2ccc(F)cc2)nn1)c1cccnc1", "25 µg/mL"],
  ["O=C(O)c1cn(C2CC2)c2cc(N3CCNCC3)c(F)cc2c1=O [CIPROFLOXACIN]", "4 µg/mL"],
  ["O=C(NCc1cn(Cc2ccc(C(F)(F)F)cc2)nn1)c1ccccc1", "25 µg/mL"],
  ["Fc1ccccc1Cn1cc(CSc2nnc(-c3cccnc3)o2)nn1", "25 µg/mL"],
  ["O=C(OCc1cn(Cc2ccc(C(F)(F)F)cc2)nn1)c1cccnc1", "50 µg/mL"],
  ["O=C(NCc1cn(Cc2ccc(F)cc2)nn1)c1ccccc1", "inactive"],
  ["O=C(NCc1cn(Cc2ccccc2F)nn1)c1ccccc1", "50 µg/mL"],
  ["N#Cc1ccc(Cn2cc(CSc3nnc(-c4cnccn4)o3)nn2)cc1", "50 µg/mL"],
  ["FC(F)(F)c1ccc(Cn2cc(CSc3nnc(-c4cccnc4)o3)nn2)cc1", "50 µg/mL"],
  ["N#Cc1ccc(Cn2cc(CNC(=O)c3cccnc3)nn2)cc1", "6.25 µg/mL"],
  ["O=C(NCc1cn(Cc2ccc(F)cc2)nn1)c1cnccn1", "12.5 µg/mL"],
  ["Fc1ccccc1Cn1cc(CSc2nnc(-c3cnccn3)o2)nn1", "inactive"],
  ["O=C(OCc1cn(Cc2ccc([N+](=O)[O-])cc2)nn1)c1ccccc1", "inactive"],
  ["O=[N+]([O-])c1ccc(Cn2cc(CSc3nnc(-c4cnccn4)o3)nn2)cc1", "25 µg/mL"],
  ["N#Cc1ccc(Cn2cc(CNC(=O)c3cnccn3)nn2)cc1", "6.25 µg/mL"],
  ["O=C(OCc1cn(Cc2ccc([N+](=O)[O-])cc2)nn1)c1cnccn1", "50 µg/mL"],
  ["O=C(NCc1cn(Cc2ccc([N+](=O)[O-])cc2)nn1)c1ccccc1", "50 µg/mL"],
  ["O=C(OCc1cn(Cc2ccc(C(F)(F)F)cc2)nn1)c1ccccc1", "inactive"],
  ["O=C(NCc1cn(Cc2ccc(C(F)(F)F)cc2)nn1)c1cnccn1", "25 µg/mL"],
  ["Fc1ccc(Cn2cc(CSc3nnc(-c4cccnc4)o3)nn2)cc1", "inactive"],
  ["O=C(OCc1cn(Cc2ccc(F)cc2)nn1)c1cnccn1", "25 µg/mL"],
  ["N#Cc1ccc(Cn2cc(COC(=O)c3cnccn3)nn2)cc1", "25 µg/mL"],
  ["N#Cc1ccc(Cn2cc(COC(=O)c3cccnc3)nn2)cc1", "50 µg/mL"]
]}
